ASSAY NAME: protein stability index of a GFP-peptide fusion (yeast GPS) (PSI 1-4); higher = more stable; sorted into four equal gates, so the index is relative within each strain
MEASUREMENT SETUP: pdr5∆
READOUT KIND: protein stability index

{"columns": ["RESIDUE STRING", "OBSERVED"],
 "data": [
  ["SWRNITNLSGGEKTLSS [SMC4]", 3.21],
  ["SNRCIVFSKKEPFPHSK [CSN12]", 2.85],
  ["NLAPKLRNVFLGKCSRI [GRR1]", 2.43],
  ["LYQIWIVMVWLKENTYV [YDL116W/NUP84]", 1.77],
  ["YSSILGNSFNKSSNDTI [YCG1]", 2.77],
  ["LVDKRIDMLPMLLGTDL [DIS3]", 2.54],
  ["MASLPHPKIVKKHTKKF [RPL32]", 2.97],
  ["IVGVLQDDADPMVSVMK [RPT2]", 2.31],
  ["ELSVVLSGIIQDIYYLA [RRI2]", 2.24],
  ["KRSGVIETVDDKLKDIV [ITC1]", 3],
  ["SPMLYKVPDISSDGQLK [BRR2]", 2.56],
  ["SDSIEKIVEIDRHIGCA [PUP2]", 3.11],
  ["TLSKTTDSSALTYDRLE [PRE9]", 2.99],
  ["LPSGRQDGVLLVALSNE [FAS2]", 2.52],
  ["LRKQKDSSTTSSNSQQS [ITC1]", 3.04],
  ["PGVLPVGIDTHTATDIY [SNF2]", 3.04],
  ["FLEKEKQLTLLRSKLFQ [SMC4]", 1.99],
  ["GKKRFRVVTVDGKLIDI [SMC4]", 3.49],
  ["VEIIDQKKVLIDGPKAG [RPL14A]", 2.65],
  ["LTVDNLSIAIVGKDTPF [PRE5]", 2.66],
  ["ESGLRPVSLLNSQLVGK [PCI8]", 3.43],
  ["AVARLKSMNKSAINQYN [SNF2]", 2.33],
  ["LPMDTNLFKINSIDVPI [YMR129W/POM152]", 1.92],
  ["ESLQKRELLKSQVEDFT [SIR3]", 3.22],
  ["WYEASTWIQQFKSTMLQ [ARP7]", 2.68],
  ["GLLKRGDTVRILDTSQS [SNU114]", 3.21],
  ["VVDQLWSEISNELPDIE [RPN2]", 2.94],
  ["NIDINNEDENIQLIKIL [YJL041W/NSP1]", 2.56],
  ["ETPKSNNSLSYHSGRLL [ITC1]", 3.06],
  ["QELCYPDENHDNTSHDE [BRN1]", 3.27],
  ["VKKVIEINPFLLGTMAG [PRE2]", 1.86],
  ["KDQLPDLESMGLTQLYK [MED7]", 3.08],
  ["VHELSKRVHTLLTLIVR [ISW2]", 1.44],
  ["QGDVEQIAAQSPVELSR [SMC1]", 2.92],
  ["LQEKISTELNNKQYELF [SWI1]", 2.74],
  ["SNQRFKDLQWLEFARIT [SIN4]", 3.13],
  ["GNEVSSLYPPPPPYVKF [MED7]", 3.08],
  ["QEWLANLKLISVSLVDE [SIR4]", 1.87],
  ["DVFDTLATYCPRVQGFY [GRR1]", 2.26],
  ["KIFVETKFSKLIGRPPL [FAS1]", 2.54],
  ["FTGNNSTPGGGSVFNMN [YOR098C/NUP1]", 3.58],
  ["YGLGLIYAGFGRDTTDY [RPN2]", 3.03],
  ["NVKFLRIFISNVSENQP [SNF12]", 1.63],
  ["AVEFESVPLRKGDRALL [BRR2]", 3.45],
  ["ESLSEEHASLLVRDSKP [MED8]", 3.04],
  ["CLDRCKEQYNRYRDLMI [MTR3]", 2.62],
  ["NVSLIKIEGVATPQDAQ [RPL33A]", 2.52],
  ["LDTRKELWRKEQKLQTV [SMC3]", 2.58],
  ["EPLAPGNDNLIKAPTVA [YLR335W/NUP2]", 2.77],
  ["NSKPVELKPVSLDNKTL [YJL041W/NSP1]", 2.75],
  ["VLKCLKSLESQRYVKSV [RPC34]", 1.94],
  ["GEINKICMESLFLEPSW [PCI8]", 1.89],
  ["AYILAAQKTSFEYEGVQ [RPN1]", 2.35],
  ["SNIITKSLVQYIELLPN [DIS3]", 2.08],
  ["RQLAGAIGYEPLSLTHR [DIS3]", 2.87],
  ["EGQENNYNSTSRSTEKK [SIR4]", 3.26],
  ["PQVLINRDPVKHAEFDL [SIR2]", 3.04],
  ["ASGFGFGGSQPNSGTAT [YGR119C/NUP57]", 2.74],
  ["AKDKEIYNKMIGVLNNS [RPN13]", 2.94],
  ["WSKTIKARTNLHQHVVL [RPC34]", 1.8]
]}

====

ASSAY NAME: protein stability index of a GFP-peptide fusion (yeast GPS) (PSI 1-4); higher = more stable; sorted into four equal gates, so the index is relative within each strain
MEASUREMENT SETUP: pdr5∆
Here, each record is paired with measured protein stability index data.

{"columns": ["RESIDUE STRING", "protein stability index"],
 "data": [
  ["TKPSDLTIKDIVLGVKD [RPO21]", 2.15],
  ["EEAKSVLPAATKKKSKF [ARP9]", 2.25],
  ["FLKHNGEEDAVDLLLEI [RPN1]", 3.16],
  ["SDDDNIGQSEELSDKEI [ISW2]", 3.44],
  ["YEKELMGDELTRSHFNA [RPN6]", 3.39],
  ["LVNIRTQTSKEQEIENN [ITC1]", 3.05],
  ["DSKGSLYSVKFAPAHLG [YGL100W/SEH1]", 3.05],
  ["SEVQRTMLELLNQLDGF [RPT6]", 2.5],
  ["AATIGANFIFSPASGIV [RPT4]", 2.66],
  ["LDKNLIKLVKQNDELKF [RPC34]", 1.21],
  ["DENKAGATSKPAFSFGA [YJL041W/NSP1]", 3.32],
  ["ENELVITSIPKPLTENC [RMP1]", 3.4],
  ["GGNGPEDFQQHEQIRRK [RPO26]", 3.39],
  ["KYLIKYNVFRQHTSFQE [CSI1]", 1.2]
]}

====

Here, each record is paired with measured protein stability index data.
ASSAY NAME: protein stability index of a GFP-peptide fusion (yeast GPS) (PSI 1-4); higher = more stable; sorted into four equal gates, so the index is relative within each strain
MEASUREMENT SETUP: san1∆
READOUT KIND: protein stability index

{"columns": ["RESIDUE STRING", "OBSERVED"],
 "data": [
  ["SLSFGSGSAGANPAGAS [YJL041W/NSP1]", 2.75],
  ["PGSVNSAAKYKDMKLLR [NUT1]", 2.73],
  ["KAFKNNSSKYYINEKES [SMC4]", 2.27],
  ["DGHLRAPLKHGVGILYK [BRR2]", 1.58],
  ["ELDQEYRSCETQDESEI [SMC4]", 2.67],
  ["KSLDSIPMSKTIKDLVG [FAS2]", 2.79],
  ["VDVNNKFIALCEQQPSQ [SIN4]", 3.18],
  ["KLDENNAQLSCITKQDG [PUP2]", 3.11],
  ["NNPANNTNNNNSTGHSS [SWI1]", 2.59],
  ["FSAPIRPDIVHTVFTSV [RPL4A]", 1.73],
  ["EEVQQAQTEIKLFNKWS [RPS5]", 3.25],
  ["KAFEERHQAGKNQWFFS [RPL27A]", 2.65],
  ["IASTLGPSAMRLSRCIR [RPC82]", 1.81],
  ["YRSCETQDESEIKDAET [SMC4]", 3.31],
  ["NFNLKPTKTLTTKERKK [PRP8]", 2.19],
  ["KLSKEERAARVAAKIAA [RPL5]", 2.49],
  ["QEWLANLKLISVSLVDE [SIR4]", 2.46],
  ["KQTDTGITHFRAGMTHE [PRP8]", 3.08],
  ["HPQDFGNPGRIRVLFKE [SEC65]", 3.13],
  ["PIIIYGTENTERPPLLP [YOR098C/NUP1]", 2.97],
  ["IESFVELGVSIYDFPGT [NUT2]", 2.53],
  ["KPVYKGKKLTDEINTAQ [RET1]", 2.75],
  ["GGCDYIFSLLTGYPDEP [CYT1]", 2.77],
  ["GSYGSLLRFNGVERLIP [PRE4]", 2.04],
  ["LVPPPRTIANQDHFHRL [RPR2]", 2.88],
  ["YGRKSFRNNKNDNYSSD [REC8]", 3.32],
  ["AGVEDVYTQSNGKTRTL [RPS2]", 3.28],
  ["RVSKDKKSGSLTFNSKN [FAS2]", 3.23],
  ["FRPIEIFTDFLPSSNGS [RRP42]", 3.09],
  ["LQCHISGTTNFMRNGLL [UBP6]", 1.81],
  ["QCPVKSAEDQLYAITFR [QCR2]", 3.13]
]}

These measurements were taken from the supplement of paper PMC9732359.
